System: MDR1 (Pgp) and BCRP
protocolNotes: Blood brain barrier penetrant assessment: efflux ratio in MDCK_MDR1_BCRP cells
Assay type: in vitro ADME
reportedConditions: human, MDCK cells doubly transfected with MDR1 (Pgp) and BCRP, ratio of 2 or less = potential for good BBB penetration, read-out: Hu MDCK-MDR1-BCRP (0.1 uM) Mean Efflux Ratio
measurementName: efflux ratio at 0.1 uM

molecule	efflux ratio at 0.1 uM
C=CC(=O)N1CCN2Cc3cc(F)c(-c4c(O)cccc4C(F)F)c(F)c3OC[C@H]2C1 (single isomer, unassigned) [Example 53]	1.5
[2H]C([2H])([2H])Oc1nc2c(c(Cl)c1-c1c(O)cccc1Cl)OC[C@H]1CN(C(=O)C=C)CCN1C2 (single isomer, unassigned) [Example 112]	1.5
C=CC(=O)N1CCN2C(=O)c3cc(F)c(-c4c(O)cccc4F)c(Cl)c3OC[C@H]2C1 (single isomer, unassigned) [Example 11]	0.5
C=CC(=O)N1CCN2Cc3cc(C#CC)c(-c4c(O)cccc4Cl)c(F)c3OC[C@H]2C1 (single isomer, unassigned) [Example 86]	0.9
C=CC(=O)N1CCN2Cc3cc(Cl)c(-c4c(O)cccc4F)c(Cl)c3OC[C@H]2C1 (single isomer, unassigned) [Example 27]	0.8

[A] C=CC(=O)N1CCN2Cc3cc(Cl)c(-c4c(O)cccc4Cl)c(F)c3OC[C@H]2C1 (single isomer, unassigned) [Example 84]
[B] C=CC(=O)N1CCN2Cc3cc(F)c(-c4c(O)cccc4Cl)c(Cl)c3OC[C@H]2C1 (single isomer, unassigned) [Example 35]
Higher efflux ratio at 0.1 uM: A or B ? Reply briefly: the label of your chosen item.
B
(B: 1.8, A: 0.6)

[a] C=CC(=O)N1CCN2Cc3cc(Cl)c(-c4c(C)cccc4O)c(F)c3OC[C@H]2C1 (single isomer, unassigned) [Example 61]
[b] C#Cc1c(F)c2c(c(F)c1-c1c(O)cccc1Cl)OC[C@H]1CN(C(=O)C=C)CCN1C2 (single isomer, unassigned) [Example 95]
[c] C#Cc1cc2c(c(C)c1-c1c(O)cccc1Cl)OC[C@H]1CN(C(=O)C=C)CCN1C2 (single isomer, unassigned) [Example 90]
List items by efflux ratio at 0.1 uM in falling order. Lab note: final answer is the ordered label list.
b, c, a
(b: 0.9, c: 0.6, a: 0.3)

The origin of these recorded values is patent US12410187B2.
